# assay system: T1, recombinant human B7-H4-huIgG1 (human)
# T1 construct: also called B7-H4-extracellular domain (ECD)
# T1 sequence (chain, as listed by the source limits assumed): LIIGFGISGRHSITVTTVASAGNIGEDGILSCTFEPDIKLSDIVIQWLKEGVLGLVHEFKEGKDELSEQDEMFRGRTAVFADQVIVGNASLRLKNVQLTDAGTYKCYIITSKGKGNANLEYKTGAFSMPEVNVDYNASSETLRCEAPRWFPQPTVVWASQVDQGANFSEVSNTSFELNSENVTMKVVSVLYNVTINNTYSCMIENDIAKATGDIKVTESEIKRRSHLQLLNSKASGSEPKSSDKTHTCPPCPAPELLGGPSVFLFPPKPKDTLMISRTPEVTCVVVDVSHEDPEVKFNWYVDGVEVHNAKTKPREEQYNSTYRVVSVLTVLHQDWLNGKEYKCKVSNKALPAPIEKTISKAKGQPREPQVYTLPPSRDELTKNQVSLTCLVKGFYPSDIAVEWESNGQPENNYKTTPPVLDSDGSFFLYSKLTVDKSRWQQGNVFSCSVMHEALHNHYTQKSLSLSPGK
# measurement notes: BLI, antigen on Protein A tips;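 note: Anti-B7-H4 antibodies assessed for affinity toward the B7-H4 extracellular domain using biolayer interferometry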
pKd: −log10 of the molar value.
# if value of pKd reaches 8, tag T; if it stays below, tag F

Please indicate if the recorded pKd for B7-H4 antibody 15461 (antibody, human IgG1, kappa, V domains shown, human IgG1/kappa) VH: QLQLQESGPGLVKPSETLSLTCTVSGGSISSSSYYWGWIRQPPGKGLEWIGNIYYSGSTYYNPSLKSRVTISVDTSKNQFSLKLSSVTAADTAVYYCAREGSYPNWFDPWGQGTLVTVSS VL: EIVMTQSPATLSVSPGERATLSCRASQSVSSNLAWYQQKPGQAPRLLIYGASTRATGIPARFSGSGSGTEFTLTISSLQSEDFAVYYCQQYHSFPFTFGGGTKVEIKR meets or exceeds 8.
F

Please indicate if the recorded pKd for B7-H4 antibody 15465 (antibody, human IgG1, kappa, V domains shown, human IgG1/kappa) VH: QVQLQESGPGLVKPSQTLSLTCTVSGGSISSGGYYWSWIRQHPGKGLEWIGNIYYSGSTYYNPSLKSRVTISVDTSKNQFSLKLSSVTAADTAVYYCARESSTISADFDLWGRGTLVTVSS VL: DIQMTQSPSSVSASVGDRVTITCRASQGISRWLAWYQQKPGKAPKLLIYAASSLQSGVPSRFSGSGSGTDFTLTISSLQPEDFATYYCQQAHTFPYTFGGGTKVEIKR meets or exceeds 8.
F

Please indicate if the recorded pKd for B7-H4 antibody 22208 (antibody, human IgG1, kappa, V domains shown, human IgG1/kappa) VH: QLQLQESGPGLVKPSETLSLTCTVSGGSIKSGSHYWGWIRQPPGKGLEWIGNIYYSGSTYYNPSLKSRVTMSVDTSKNQFSLKLSSVTAADTAVYYCAREGSYPNWFDPWGQGTLVTVSS VL: EIVMTQSPATLSVSPGERATLSCRASQSVSTNLAWYQQKPGQAPRLLIYDASARVTGIPARFSGSGSGTEFTLTISSLQSEDFAVYYCQQYHSFPFTFGGGTKVEIKR meets or exceeds 8.
T

Please indicate if the recorded pKd for B7-H4 antibody 22216 (antibody, human IgG1, kappa, V domains shown, human IgG1/kappa) VH: QVQLQESGPGLVKPSQTLSLTCTVSGGSISDGSYYWSWIRQHPGKGLEWIGNIYYSGSTYYNPSLRSRVTMSVDTSKNQFSLKLSSVTAADTAVYYCARGLSTIDEAFDPWGQGTLVTVSS VL: DIQMTQSPSTLSASVGDRVTITCRASKSISSWLAWYQQKPGKAPKLLIYEASSLHSGVPSRFSGSGSGTEFTLTISSLQPDDFATYYCQQDNSYPYTFGGGTKVEIKR meets or exceeds 8.
T

Please indicate if the recorded pKd for B7-H4 antibody 20506 (antibody, V domains shown, human IgG1/kappa) VH: QLQLQESGPGLVKPSETLSLTCTASGGSISHGGYYWSWIRQHPGKGLEWIGNIYYSGSTYYNPSLKSRVTMSVDTSKNQFSLKLSSVTAADTAVYYCARESSTISADFDLWGRGTLVTVSS VL: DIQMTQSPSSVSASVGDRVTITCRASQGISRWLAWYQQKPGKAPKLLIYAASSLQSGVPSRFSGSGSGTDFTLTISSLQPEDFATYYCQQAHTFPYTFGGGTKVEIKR meets or exceeds 8.
T
